Test system: Ruminococcus gnavus DSM 108212
Test: fold change of 2-Phenylethylamine concentration vs plate DMSO controls (fold change (ratio)); higher = more amine produced, active = hit call of the paper (significant change in both replicates, either direction);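 for the amine columns active = adjusted P below 0.05 in both replicates with a change the same way and a mean fold change under 0.8 or over 1.25; inactive = the rest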
Conditions: incubation time: 27 h, anaerobic, 37 °C
Where a name gives a salt, the structure may show the parent alone.
Answer with one of the outcomes class 1 for active, class 0 for inactive

*Q* Tell me the recorded outcome of this test for CCCOc1ccccc1-c1nc2[nH]nnc2c(=O)[nH]1 [Zaprinast] (20 µM) .
*A* class 0

*Q* # fetch the recorded call for O=C(CO)[C@@H](O)[C@@H](O)[C@H](O)CO [D-Tagatose] (50 µM) here
*A* class 0

*Q* Kindly provide the recorded test outcome for the following compound: CN(C)CCCOc1nn(Cc2ccccc2)c2ccccc12 [Benzydamine hydrochloride] (20 µM)
*A* class 0

*Q* Call for entry O=C(O)Cc1cc(I)c(Oc2ccc(O)c(I)c2)c(I)c1 [Tiratricol] (20 µM) :
*A* class 0

*Q* Hey, what did the test say about CC(C)Nc1cccnc1N1CCN(C(=O)c2cc3cc(NS(C)(=O)=O)ccc3[nH]2)CC1 [Delavirdine] (20 µM) ?
*A* class 0

*Q* Which outcome was assigned to COCCOC(=O)C1=C(C)NC(C)=C(C(=O)OC/C=C/c2ccccc2)C1c1cccc([N+](=O)[O-])c1 (stereo unspecified) [Cilnidipine] (20 µM) in this test?
*A* class 0

*Q* // param item: Cc1nnc(NS(=O)(=O)c2ccc(N)cc2)s1 [Sulfamethizole] (20 µM) ; yields the recorded call
*A* class 0

*Q* // return assay outcome for CO/N=C(\C(=O)N[C@@H]1C(=O)N2C(C(=O)[O-])=C(C[n+]3ccn4ncccc43)CS[C@H]12)c1nsc(N)n1 [Cefozopran hydrochloride] (20 µM)
*A* class 1

*Q* Please state the recorded outcome for this compound: CCCCS(=O)(=O)N[C@@H](Cc1ccc(OCCCCC2CCNCC2)cc1)C(=O)O [Tirofiban hydrochloride] (20 µM)
*A* class 0

*Q* Hi, do you know how CN(C)C(=O)Nc1ccc(Cl)c(Cl)c1 (20 µM) came out in this test?
*A* class 0

*Q* # outcome recorded in this test, key = CCCCOc1ccc(OCCCN2CCOCC2)cc1 [Pramoxine hydrochloride] (20 µM)
*A* class 0

*Q* What did the test return for O=C(c1ccc(F)cc1)C1CCN(CCn2c(=O)[nH]c3ccccc3c2=O)CC1 [Ketanserin tartrate hydrate] (20 µM) ?
*A* class 0

*Q* Can you look up the reported call for CC[C@@H](CO)NCCN[C@@H](CC)CO [Ethambutol dihydrochloride] (20 µM) for me?
*A* class 0

*Q* State the result this test recorded for C[C@]12CCC(=O)C=C1C=C[C@@H]1[C@@H]2CC[C@@]2(C)[C@H]1CC[C@@]21CCC(=O)O1 [Canrenone] (20 µM) .
*A* class 0

*Q* Please indicate how the test categorized CCN(CC)CCCC(C)Nc1ccnc2cc(Cl)ccc12 (stereo unspecified) [Chloroquine diphosphate] (20 µM) .
*A* class 0

*Q* Hi, sorry to bother you, what did the test record for CN1CCN(c2c(F)cc3c(=O)c(C(=O)O)cn4c3c2SCC4)CC1 [Rufloxacin] (20 µM) ?
*A* class 0

----------
Test system: Clostridium sporogenes DSM 1664
Assay: growth (OD595) fold change vs plate DMSO controls (fold change (ratio)); higher = more growth
Settings: incubation time: 27 h, anaerobic, 37 °C
Structures can show the parent of a compound that is named as a salt.
Quantity name: growth
Lab note: record the figure alone, no unit after it.

*Q* Can you look up the measured growth of CCCNC(C)C(=O)Nc1c(C)csc1C(=O)OC (stereo unspecified) [Articaine hydrochloride] (20 µM) for me?
*A* 0.923

*Q* // query growth value for entry NNC(=O)c1ccncc1 [Isoniazid] (20 µM)
*A* 1.22

*Q* Could you share which growth value was measured for COc1ccc2c(c1)c(CC(=O)OC/C=C(\C)CC/C=C(\C)CCC=C(C)C)c(C)n2C(=O)c1ccc(Cl)cc1 [Indometacin farnesil] (20 µM) ?
*A* 1.02

*Q* Tell me the measured growth of CC(=O)Oc1cc2c(s1)CCN(C(C(=O)C1CC1)c1ccccc1F)C2 (stereo unspecified) [Prasugrel] (20 µM) , please.
*A* 1.1

*Q* Suppose we examine the molecule CC(COc1ccccc1)NC(C)C(O)c1ccc(O)cc1 (stereo unspecified) [Isoxsuprine hydrochloride] (20 µM) ; what growth value has been reported?
*A* 1.07

*Q* Quick check: growth of Nc1nc(CC(=O)Nc2ccc(CCNC[C@H](O)c3ccccc3)cc2)cs1 [Mirabegron] (20 µM) ?
*A* 1.09

*Q* So what does the record say about growth for CCOc1ccc2nc3cc(N)ccc3c(N)c2c1 [Ethacridine lactate] (20 µM) ?
*A* 0.937

*Q* What does the record list as growth for COc1ccc(Cl)cc1C(=O)NCCc1ccc(S(=O)(=O)NC(=O)NC2CCCCC2)cc1 [Glibenclamide] (20 µM) ?
*A* 1.19

*Q* Dear colleague, I am looking for the recorded growth of the following molecule: COCC(=O)O[C@]1(CCN(C)CCCc2nc3ccccc3[nH]2)CCc2cc(F)ccc2[C@@H]1C(C)C [Mibefradil hydrochloride] (20 µM)
*A* 1.05

*Q* Report growth for CC(C)OC(=O)C(C(=O)OC(C)C)=C1SC=CS1 [Malotilate] (20 µM) please.
*A* 1.09

*Q* Param item = CCCc1nc(C)c2c(=O)nc(-c3cc(S(=O)(=O)N4CCN(CC)CC4)ccc3OCC)[nH]n12 [Vardenafil] (20 µM) ; retrieve measured growth.
*A* 1.15

*Q* Query: growth; subject: NC1CCN(c2c(F)cc3c(=O)c(C(=O)O)cn(C4CC4)c3c2Cl)C1 (stereo unspecified) [Clinafloxacin] (20 µM)
*A* 0.00892

*Q* Would you kindly share the measured growth for CC(C)NC(=N)NC(=N)Nc1ccc(Cl)cc1 [Proguanil hydrochloride] (20 µM) ?
*A* 0.986

*Q* Could you tell me which growth is on file for Cc1c(-c2ccccc2)oc2c(C(=O)OCCN3CCCCC3)cccc2c1=O [Flavoxate hydrochloride] (20 µM) ?
*A* 1.09

*Q* Recorded growth for CC(C)(Sc1cc(C(C)(C)C)c(O)c(C(C)(C)C)c1)Sc1cc(C(C)(C)C)c(O)c(C(C)(C)C)c1 [Probucol] (20 µM) , please?
*A* 1.03

*Q* Can you share its growth? I mean this molecule: CCCCC(CC)CN1C(=O)[C@@H]2[C@H](C1=O)[C@@H]1C=C[C@H]2C1 (mixture of isomers) (20 µM)
*A* 1.03

*Q* Please look up its growth: CC1(C)S[C@@H]2[C@H](NC(=O)[C@H](N)c3ccc(O)cc3)C(=O)N2[C@H]1C(=O)O [Amoxicillin] (20 µM)
*A* 0

*Q* Any idea what its growth is? The molecule is CNC[C@H](O)[C@@H](O)[C@H](O)[C@H](O)CO [Meglumine] (20 µM)
*A* 0.956

*Q* What value of growth has been recorded for this entry: Clc1ccc(C(Cn2ccnc2)OCc2c(Cl)cccc2Cl)c(Cl)c1 (stereo unspecified) [Isoconazole] (20 µM)
*A* 0.999

*Q* Would you mind telling me what growth value was observed for OCCOCCN1CCN(C(c2ccccc2)c2ccc(Cl)cc2)CC1 (stereo unspecified) [Hydroxyzine dihydrochloride] (20 µM) ?
*A* 1.07

*Q* Look at this molecule and give its reported growth. Nc1ccc(S(N)(=O)=O)cc1 [Sulfanilamide] (20 µM)
*A* 0.877

*Q* Could you share which growth value was measured for CN(C)CCOc1ccc(/C(=C(/CCCl)c2ccccc2)c2ccccc2)cc1 [Toremifene] (20 µM) ?
*A* 1.18

*Q* Look at this molecule and give its reported growth. CCOC(=O)/C=C(C)/C=C/C=C(C)/C=C/c1c(C)cc(OC)c(C)c1C [Etretinate] (20 µM)
*A* 1.04

*Q* Please give the measured growth for this molecule: Cc1cc2cc3c(C)cc(=O)oc3c(C)c2o1 [Trioxsalen] (20 µM)
*A* 1.03

*Q* For Cc1cn(-c2cc(NC(=O)c3ccc(C)c(Nc4nccc(-c5cccnc5)n4)c3)cc(C(F)(F)F)c2)cn1 [Nilotinib] (20 µM) , what is its reported growth?
*A* 0.888

*Q* Name the recorded growth for CCC(C)(C)C(=O)O[C@H]1C[C@@H](C)C=C2C=C[C@H](C)[C@H](CC[C@@H]3C[C@@H](O)CC(=O)O3)[C@H]21 [Simvastatin] (20 µM) .
*A* 1.01

*Q* What does the data say about its growth? Entry: CC(=O)Oc1ccccc1C(=O)Nc1ncc([N+](=O)[O-])s1 [Nitazoxanide] (20 µM)
*A* 0.00234

*Q* What does the data say about its growth? Entry: O=c1[nH]c(=O)n([C@H]2C[C@H](O)[C@@H](CO)O2)cc1/C=C/Br [Brivudine] (20 µM)
*A* 1.08

*Q* What measured growth goes with COC(=O)C1=C(C#N)NC(C)=C(C(=O)OC(C)C)C1c1cccc([N+](=O)[O-])c1 (stereo unspecified) [Nilvadipine] (20 µM) ?
*A* 1.01

*Q* Look up growth: CC(C)(C)NCC(O)c1cc(O)cc(O)c1 (stereo unspecified) [Terbutaline hemisulfate] (20 µM)
*A* 0.98

*Q* What measured growth goes with CCOC(=O)[C@H](CCc1ccccc1)N[C@@H](C)C(=O)N1[C@H](C(=O)O)C[C@@H]2CCC[C@@H]21 [Ramipril] (20 µM) ?
*A* 1.06
